The entries below come with measured viability, T/C values attached.
# System: 192522-019-R-J2-PDC complex tumor spheroid viability
# Test Method Notes: Anticancer human tumor 192522-019-R-J2-PDC patient-derived colon adenocarcinoma cell line growth inhibition [POLQ]
# Condition Description: second compound 1 µM; first compound 0.0316 µM; stronger effect = lower value
# value in %; strip the unit string

Examples with answers:
- Compound: "Cn1ncnc1[C@H]1c2n[nH]c(=O)c3cc(F)cc(c23)N[C@@H]1c1ccc(F)cc1 + Cc1cccc(N(C)C(=O)C2C(O)CCN2c2nc(C)cc(C(F)(F)F)c2C#N)c1"
  Number: 100
- Compound: "CCc1cc2c(N3CCc4c(cc(Cn5ccnc5)cc4-c4cn(C)nc4C(F)(F)F)C3=O)cc(C)nc2c(OC)n1 + Nc1ccc(C#CCN(C(=O)Cc2ncc(C(F)(F)F)cc2C(F)(F)F)c2ccc(F)cc2)nn1"
  Number: 103
- Compound: "CC(C)n1c(=O)n(C)c2cnc3cc(F)c(-c4ccc(OCCCN5CCCCC5)nc4)cc3c21 + COC1C(OC(N)=O)C(O)C(Oc2ccc3c(O)c(NC(=O)c4ccc(O)c(CC=C(C)C)c4)c(=O)oc3c2C)OC1(C)C"
  Number: 96.8

For the compound CC1COCCN1c1cc(-c2ccnn2C)c2ccnc(-c3ccn[nH]3)c2n1 (stereo unspecified) + COC1C(OC(N)=O)C(O)C(Oc2ccc3c(O)c(NC(=O)c4ccc(O)c(CC=C(C)C)c4)c(=O)oc3c2C)OC1(C)C , what viability, T/C is on record?
101

I'd like to know its viability, T/C. The compound in question is C=CC(=O)N1CCN(c2nc(=O)n(-c3c(C)ccnc3C(C)C)c3nc(-c4c(O)cccc4F)c(F)cc23)C(C)C1 (stereo unspecified) + COC1C(OC(N)=O)C(O)C(Oc2ccc3c(O)c(NC(=O)c4ccc(O)c(CC=C(C)C)c4)c(=O)oc3c2C)OC1(C)C
97.7

Report viability, T/C for O=C(Nc1ccc(O)c(NS(=O)(=O)c2ccc(F)cc2)c1)c1ccc(-c2ccccc2)cc1 + COC1C(OC(N)=O)C(O)C(Oc2ccc3c(O)c(NC(=O)c4ccc(O)c(CC=C(C)C)c4)c(=O)oc3c2C)OC1(C)C please.
95.7

Fill in: viability, T/C of Cn1ncnc1[C@H]1c2n[nH]c(=O)c3cc(F)cc(c23)N[C@@H]1c1ccc(F)cc1 + COC1C(OC(N)=O)C(O)C(Oc2ccc3c(O)c(NC(=O)c4ccc(O)c(CC=C(C)C)c4)c(=O)oc3c2C)OC1(C)C is ___
86.5

----------
# Test system: 192522-019-R-J2-PDC complex tumor spheroid viability
# Test Method Notes: Anticancer human tumor 192522-019-R-J2-PDC cell line growth inhibition [POLQ];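 further: spheroids exposed to drugs for seven days before reading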
# Condition Description: curve of first compound; second compound 1 µM
IC50: recorded values
All answers are understood in nM, so give the number only.

- Compound: "CC1COCCN1c1cc(-c2ccnn2C)c2ccnc(-c3ccn[nH]3)c2n1 (stereo not given) + Cc1cccc(N(C)C(=O)C2C(O)CCN2c2nc(C)cc(C(F)(F)F)c2C#N)c1"
  Measurement Units: "nM"
  IC50: 428

What value of measured IC50 is listed for COc1cccc(OCCCN)c1-c1cc(Nc2cnc(C#N)cn2)n[nH]1 + COC1C(OC(N)=O)C(O)C(Oc2ccc3c(O)c(NC(=O)c4ccc(O)c(CC=C(C)C)c4)c(=O)oc3c2C)OC1(C)C ?
16.6
